- assay_info: protein stability index of a GFP-peptide fusion (yeast GPS) (PSI 1-4); higher = more stable; sorted into four equal gates, so the index is relative within each strain
- test_conditions: doa10∆
attribute_measured: protein stability index
Kindly provide the number alone.

// solved cases for protein stability index follow
DTSDIIVDPTAEQLKIS [RRP46] :: 1.79
QSSLSKVDIPLEVVQYI [NUT2] :: 2.69

Entry under test: FSWGRPADSTYGAYNTQ [PRE4] . Its protein stability index was 2.75

Looking up RKEPPATVEECVKLTVR [PRE6] , I see its protein stability index listed as 1.45

According to the records, this sequence CWLSSVDVNTQKSFEQL [RPN11] displays protein stability index of 2.69

Summary for this sequence, PKKALKVKAGVRSANED [RRP43] : protein stability index is 2.84

Briefly, protein stability index measured for FNFVLLGQIGACHVEVP [COB] : 1.43

Summary for this sequence, LSSMRFKPSQEPEFHAL [RRI1] : protein stability index is 2.58

----------
- assay_info: protein stability index of a GFP-peptide fusion (yeast GPS) (PSI 1-4); higher = more stable; sorted into four equal gates, so the index is relative within each strain
- test_conditions: ubr1∆
attribute_measured: protein stability index
Lab note: record just the number, no unit beside it.

SECIVSIKSKVVDHHVE [RRP42] :: 3.04
LEAPVKSIENPTQTKGN [YLR335W/NUP2] :: 2.95

Attention now shifts to the item below.
protein stability index reading for TAAFTAMICEAKGLIEN [YJR042W/NUP85] : 2.94

----------
- assay_info: protein stability index of a GFP-peptide fusion (yeast GPS) (PSI 1-4); higher = more stable; sorted into four equal gates, so the index is relative within each strain
- test_conditions: pdr5∆
attribute_measured: protein stability index
API doc: respond with a numeric literal and nothing else, no unit.

EEKPDVTYSDVGGCKDQ [RPT1] :: 3.65

protein stability index in this record for TKNLSILTSKVNAIKNE [DSN1] : 2.13

Consider DSLTQNNNNAPIIIYGT [YOR098C/NUP1] . Its measured protein stability index is 2.93

According to the records, this sequence QLESYEYMVQYIDEMYN [RRI1] displays protein stability index of 2.89

Recorded protein stability index (sequence LGAIEQILIFAADTSIV [YJL039C/NUP192] ): 2.02

// IHEIDERLAKVNEMNDQ [NNF1] : protein stability index value = 2.51

----------
- assay_info: protein stability index of a GFP-peptide fusion (yeast GPS) (PSI 1-4); higher = more stable; sorted into four equal gates, so the index is relative within each strain
- test_conditions: doa10∆
# protein stability index listing for each entry below

KTYNCLHEKYLTEGGSI [SMC1] :: 3.03

Entry NTEGSVVYEDSLELEKV [SNF2] , protein stability index reported as 2.98

Quick note, protein stability index for DVLKDGENNINFQKASA [BRN1] landed at 3.31

Sample PSHYPHPYEYEIDHQEY [RRP6] ; protein stability index observed: 2.41

For record FPLCVHLVSNELEQLSS [RPL10] the listed protein stability index is 2.7

----------
- assay_info: protein stability index of a GFP-peptide fusion (yeast GPS) (PSI 1-4); higher = more stable; sorted into four equal gates, so the index is relative within each strain
- test_conditions: doa10∆
Rule: fulfilled for protein stability index not less than 3, not fulfilled for anything less.

# count of solved cases: 2
LGHTKAALGEVASMELK [SIR2] :: not fulfilled
RDDEPKLYQTEPSGIYS [PRE6] :: fulfilled

IN: Test whether the sequence KPGQNNRQQKKRRFDPS [RRP6] records protein stability index of 3 or higher.
OUT: not fulfilled

IN: Is it the case that PKCHSRENVFFQSQQRR [RPB9] has protein stability index reaching or exceeding 3?
OUT: fulfilled

IN: // inclusive: protein stability index at least 3? input: TVPRIVQLLSKSHNAHV [RPN2]
OUT: not fulfilled

IN: Does protein stability index meet or surpass 3 for ADEDDEDAKYVINLKQI [RPT1] ?
OUT: not fulfilled

IN: Test whether the sequence GGPWFTDGELDIEFINS [RPC34] records protein stability index of 3 or higher.
OUT: fulfilled

IN: Decide: protein stability index of TANDRQINNVHLIPNEI [RPN4] >= 3?
OUT: not fulfilled

IN: Kindly determine if protein stability index recorded for APMDFAIVVGWRAIIKA [FAS1] is above or exactly 3.
OUT: not fulfilled

IN: Hello, I need to know if EVAKKRSRKTVKAQRPI [RPL24A] has measured protein stability index not below 3. Thanks!
OUT: fulfilled

IN: Can QENGTIFRGSLIGCIPY [YDL088C/ASM4] be said to have protein stability index at or above 3?
OUT: not fulfilled

IN: Decide: is the reported value of protein stability index for MEVLGIEAGRAALYKEV [RPO21] equal to or greater than 3?
OUT: not fulfilled

These entries and their values trace back to the supplement of paper PMC9732359.
